test.description: Metabolic stability in mouse intestinal S9 fraction assessed as parent compound level at 200 uM measured after 1 hr in presence or absence of NADPH by LC-MS/MS analysis
Type: ADME, Intestine
cond: read-out: Stability
value.kind: remaining at 1 h, 200 µM

Give the measured remaining at 1 h, 200 µM of CC(C)(C)NC(=O)N(CCCCCCN1C[C@H](O)[C@@H](O)[C@H](O)[C@H]1CO)C1CCCCC1 .
76 to 95%

###

Each entry below carries its reported remaining at 1 h, 200 µM.
test.description: Metabolic stability in pooled mouse liver microsomes assessed as parent compound remaining at 200 uM measured after 60 mins in presence of NADPH and UDPGA by LC-MS/MS analysis
Assay type: ADME, microsome
cond: read-out: Stability
Numeric answer only, unit % assumed.

                              smiles_string  unit_label  recorded_number
0  CCCC(=O)OC[C@@H]1[C@@H](OC(=O)CCC)[C@H](OC(=O)CCC)[C@@H](OC(=O)CCC)CN1CCCCCCN(C(=O)NC(C)(C)C)C1CCCCC1           %               10

So what does the record say about remaining at 1 h, 200 µM for CC(=O)OC[C@@H]1[C@@H](OC(C)=O)[C@H](OC(C)=O)[C@@H](OC(C)=O)CN1CCCCCCN(C(=O)NC(C)(C)C)C1CCCCC1 ?
0

What value of remaining at 1 h, 200 µM has been recorded for this entry: CC(C)C(=O)OC[C@@H]1[C@@H](OC(=O)C(C)C)[C@H](OC(=O)C(C)C)[C@@H](OC(=O)C(C)C)CN1CCCCCCN(C(=O)NC(C)(C)C)C1CCCCC1
5

Record request: remaining at 1 h, 200 µM value, item CC(C)(C)NC(=O)N(CCCCCCN1C[C@H](O)[C@@H](O)[C@H](O)[C@H]1CO)C1CCCCC1
63

###

test.description: Tmax in BALB/c mouse at 100 mg/kg, po administered as single dose by LC-MS/MS analysis
Format: ADME, organism-based
cond: in vivo
value.kind: Tmax (min)
All answers are understood in min, so give the number only.

Return reported Tmax; argument: CC(C)(C)NC(=O)N(CCCCCCN1C[C@H](O)[C@@H](O)[C@H](O)[C@H]1CO)C1CCCCC1
30

###

test.description: Cmax in BALB/c mouse at 25 mg/kg, po administered as single dose by LC-MS/MS analysis
Assay type: ADME, organism-based
Parameters: dose 25 mg/kg, route oral
cond: in vivo
value.kind: Cmax (ng/mL)
Respond numerically; units are ng/mL and should not be typed.

Item under review: CC(C)(C)NC(=O)N(CCCCCCN1C[C@H](O)[C@@H](O)[C@H](O)[C@H]1CO)C1CCCCC1 . Reported Cmax?
184

###

In this section we review reported IC50 values for a set of molecules.
test.description: Inhibition of pig liver endoplasmic reticulum alpha glucosidase-2 using 4-methylumbelliferyl-alpha-D-glucoside as substrate measured after 60 mins by fluorescence analysis
Parameters: species or system Sus scrofa

Reference set (3 entries):
In [3]: df
Out[3]:
                              smiles_string    result
0  CC(=O)OC[C@@H]1[C@@H](OC(C)=O)[C@H](OC(C)=O)[C@@H](OC(C)=O)CN1CCCCCCN(C(=O)NC(C)(C)C)C1CCCCC1  > 100 µM
1  CC(C)(C)NC(=O)N(CCCCCCN1C[C@H](O)[C@@H](O)[C@H](O)[C@H]1CO)C1CCCCC1   27.8 µM
2  CC(C)C(=O)OC[C@@H]1[C@@H](OC(=O)C(C)C)[C@H](OC(=O)C(C)C)[C@@H](OC(=O)C(C)C)CN1CCCCCCN(C(=O)NC(C)(C)C)C1CCCCC1  > 100 µM

What value of measured IC50 is listed for CCCC(=O)OC[C@@H]1[C@@H](OC(=O)CCC)[C@H](OC(=O)CCC)[C@@H](OC(=O)CCC)CN1CCCCCCN(C(=O)NC(C)(C)C)C1CCCCC1 ?
> 100 µM

###

test.description: Cmax in BALB/c mouse at 5 mg/kg, iv as bolus administration by LC-MS/MS analysis
Assay type: ADME, organism-based
Set-up: dose 5 mg/kg, route intravenous
cond: in vivo
value.kind: Cmax (ng/mL)
A number alone suffices; assume ng/mL.

Which measured Cmax value corresponds to CC(C)(C)NC(=O)N(CCCCCCN1C[C@H](O)[C@@H](O)[C@H](O)[C@H]1CO)C1CCCCC1 ?
2840

###

test.description: Clearance in BALB/c mouse at 5 mg/kg, iv as bolus administration by LC-MS/MS analysis
Assay type: ADME, organism-based
cond: in vivo
value.kind: clearance (mL/min/kg)
The answer is to be given in mL/min/kg; state only the numeric part.

// lookup clearance for CC(C)(C)NC(=O)N(CCCCCCN1C[C@H](O)[C@@H](O)[C@H](O)[C@H]1CO)C1CCCCC1
70

###

test.description: Metabolic stability in human plasma assessed as parent compound remaining at 5 uM measured after 2 hrs by LC-MS/MS analysis
Assay type: ADME, cell-free
cond: read-out: Stability
Entries annotated with measured remaining at 2 h, 5 µM
Value expressed in %; do not type the unit.

Worked examples, 3 molecules total:
>>> df
                              smiles_string  recorded_number
0  CC(C)C(=O)OC[C@@H]1[C@@H](OC(=O)C(C)C)[C@H](OC(=O)C(C)C)[C@@H](OC(=O)C(C)C)CN1CCCCCCN(C(=O)NC(C)(C)C)C1CCCCC1              100
1  CC(C)(C)NC(=O)N(CCCCCCN1C[C@H](O)[C@@H](O)[C@H](O)[C@H]1CO)C1CCCCC1              109
2  CC(=O)OC[C@@H]1[C@@H](OC(C)=O)[C@H](OC(C)=O)[C@@H](OC(C)=O)CN1CCCCCCN(C(=O)NC(C)(C)C)C1CCCCC1               84

Proceeding to the next molecule to report its remaining at 2 h, 5 µM.
What value of measured remaining at 2 h, 5 µM is listed for CCCC(=O)OC[C@@H]1[C@@H](OC(=O)CCC)[C@H](OC(=O)CCC)[C@@H](OC(=O)CCC)CN1CCCCCCN(C(=O)NC(C)(C)C)C1CCCCC1 ?
106

###

Documented recovery at 2 h, 5 µM across a set of molecules
test.description: Apparent permeability of the compound across apical side to basolateral side in human Caco2 cells assessed as drug recovery at 5 uM measured after 2 hrs by LC-MS/MS analysis
Assay type: ADME, cell-based
cond: Caco-2, read-out: Drug recovery

Solved entries:
In [3]: df
Out[3]:
                              smiles_string  result
0  CC(C)C(=O)OC[C@@H]1[C@@H](OC(=O)C(C)C)[C@H](OC(=O)C(C)C)[C@@H](OC(=O)C(C)C)CN1CCCCCCN(C(=O)NC(C)(C)C)C1CCCCC1   < 60%
1  CCCC(=O)OC[C@@H]1[C@@H](OC(=O)CCC)[C@H](OC(=O)CCC)[C@@H](OC(=O)CCC)CN1CCCCCCN(C(=O)NC(C)(C)C)C1CCCCC1   < 60%

Tell me the measured recovery at 2 h, 5 µM of CC(=O)OC[C@@H]1[C@@H](OC(C)=O)[C@H](OC(C)=O)[C@@H](OC(C)=O)CN1CCCCCCN(C(=O)NC(C)(C)C)C1CCCCC1 , please.
9%

###

test.description: Half life in BALB/c mouse at 25 mg/kg, po administered as single dose by LC-MS/MS analysis
Format: ADME, organism-based
cond: in vivo
value.kind: half-life (h)
Write the answer as a number in h, unit excluded.

Request the reported half-life associated with CC(C)(C)NC(=O)N(CCCCCCN1C[C@H](O)[C@@H](O)[C@H](O)[C@H]1CO)C1CCCCC1
5.19

###

Catalogue of molecules with associated pIC50
test.description: Inhibition of pig liver endoplasmic reticulum alpha glucosidase-1 using 4-methylumbelliferyl-alpha-D-glucoside as substrate measured after 90 mins by fluorescence analysis
Design: species or system Sus scrofa
pIC50: −log10 of the molar value.

Worked set:
In [3]: df
Out[3]:
                              smiles_string  result
0  CC(C)(C)NC(=O)N(CCCCCCN1C[C@H](O)[C@@H](O)[C@H](O)[C@H]1CO)C1CCCCC1    6.09
1  CC(=O)OC[C@@H]1[C@@H](OC(C)=O)[C@H](OC(C)=O)[C@@H](OC(C)=O)CN1CCCCCCN(C(=O)NC(C)(C)C)C1CCCCC1  < 4.10
2  CC(C)C(=O)OC[C@@H]1[C@@H](OC(=O)C(C)C)[C@H](OC(=O)C(C)C)[C@@H](OC(=O)C(C)C)CN1CCCCCCN(C(=O)NC(C)(C)C)C1CCCCC1  < 4.10

As a next step, examine the molecule that follows.
Consider the molecule shown here: CCCC(=O)OC[C@@H]1[C@@H](OC(=O)CCC)[C@H](OC(=O)CCC)[C@@H](OC(=O)CCC)CN1CCCCCCN(C(=O)NC(C)(C)C)C1CCCCC1 What is its recorded pIC50?
< 4.10
